As an illustration, consider measured IC50 for compounds on Acetylcholinesterase (Homo sapiens, UniProt P22303).
Sequence (P22303 whole entry): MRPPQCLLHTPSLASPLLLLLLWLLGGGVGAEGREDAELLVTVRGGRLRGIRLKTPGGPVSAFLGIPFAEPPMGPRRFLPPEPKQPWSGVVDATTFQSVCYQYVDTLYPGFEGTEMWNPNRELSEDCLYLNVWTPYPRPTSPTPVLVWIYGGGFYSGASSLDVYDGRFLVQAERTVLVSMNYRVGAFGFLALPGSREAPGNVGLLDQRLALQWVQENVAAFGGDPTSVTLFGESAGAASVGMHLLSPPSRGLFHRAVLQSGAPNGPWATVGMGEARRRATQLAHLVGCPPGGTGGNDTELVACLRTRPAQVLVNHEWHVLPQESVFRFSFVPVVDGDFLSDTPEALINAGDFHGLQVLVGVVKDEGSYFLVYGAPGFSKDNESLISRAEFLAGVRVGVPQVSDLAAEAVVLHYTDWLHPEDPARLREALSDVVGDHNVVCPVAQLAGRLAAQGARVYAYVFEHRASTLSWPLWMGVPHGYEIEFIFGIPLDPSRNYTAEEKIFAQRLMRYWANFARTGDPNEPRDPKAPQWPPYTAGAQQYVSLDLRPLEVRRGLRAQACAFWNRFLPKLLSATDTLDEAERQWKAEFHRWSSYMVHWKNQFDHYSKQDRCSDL
measured-quantity: IC50

> print(dat)
                                  cpd.smiles  measured.quantity   observed
 1     COC(=O)C(=O)c1cc(C)ccc1NC(=O)c1ccccc1               IC50  > 1000 nM
 2    O=C1C(=O)N(Cc2ccc(Br)cc2)c2ccc(Br)cc21               IC50    89.1 nM
 3  O=C1C(=O)N(Cc2ccccc2[N+](=O)[O-])c2ccc(Br)cc21               IC50     263 nM
 4  O=C(O)CCC(=O)NCc1ccc2c(c1)CC(=O)N2C(=O)c1ccccc1               IC50  > 1000 nM
 5     Cc1ccc2c(c1)C(=O)C(=O)N2Cc1ccc(Br)cc1               IC50     204 nM
 6     Cc1ccc2c(c1)C(=O)C(=O)N2C(=O)c1ccccc1               IC50  > 1000 nM
 7  O=C1C(=O)N(C(=O)c2ccccc2)c2ccc(CN3CCCCC3)cc21               IC50    79.4 nM
 8  CCN(CC)Cc1ccc(NC(=O)c2ccccc2)c(C(=O)C(=O)N(CC)CC)c1               IC50    44.7 nM
 9         Cc1ccc2c(c1)CC(=O)N2C(=O)c1ccccc1               IC50  > 1000 nM
10  O=C(Nc1ccc(CN2CCOCC2)cc1C(=O)C(=O)N1C(=O)CCC1=O)c1ccccc1               IC50     229 nM
11        Cc1ccc2c(c1)C(=O)C(=O)N2C(=O)N(C)C               IC50     144 nM
